# ASSAY NAME: Cmax in CD1 mouse assessed as pibrentasvir1 level at 3 mg/kg, po measured up to 24 hrs
# Format: ADME, organism-based
# Design: route oral, dose 3 mg/kg, time <=24
# REPORTED CONDITIONS: in vivo

STRUCTURE AS SMILES	Cmax [ng/mL]
COC(=O)N[C@H](C(=O)N1CCC[C@H]1c1nc2cc(F)c([C@H]3CC[C@H](c4cc5nc([C@@H]6CCCN6C(=O)[C@@H](NC(=O)OC)[C@@H](C)OC)n(COC(=O)[C@@H](NC(=O)COP(=O)(O)O)C(C)C)c5cc4F)N3c3cc(F)c(N4CCC(c5ccc(F)cc5)CC4)c(F)c3)cc2[nH]1)[C@@H](C)OC	216
COC(=O)N[C@H](C(=O)N1CCC[C@H]1c1nc2cc([C@H]3CC[C@H](c4cc5nc([C@@H]6CCCN6C(=O)[C@@H](NC(=O)OC)[C@@H](C)OC)n(COP(=O)(O)O)c5cc4F)N3c3cc(F)c(N4CCC(c5ccc(F)cc5)CC4)c(F)c3)c(F)cc2n1COP(=O)(O)O)[C@@H](C)OC	396
COC(=O)N[C@H](C(=O)N1CCC[C@H]1c1nc2cc(F)c([C@H]3CC[C@H](c4cc5nc([C@@H]6CCCN6C(=O)[C@@H](NC(=O)OC)[C@@H](C)OC)n(COP(=O)(O)O)c5cc4F)N3c3cc(F)c(N4CCC(c5ccc(F)cc5)CC4)c(F)c3)cc2[nH]1)[C@@H](C)OC	141
COC(=O)N[C@H](C(=O)N1CCC[C@H]1c1nc2cc([C@H]3CC[C@H](c4cc5c(cc4F)nc([C@@H]4CCCN4C(=O)[C@@H](NC(=O)OC)[C@@H](C)OC)n5COP(=O)(O)O)N3c3cc(F)c(N4CCC(c5ccc(F)cc5)CC4)c(F)c3)c(F)cc2n1COP(=O)(O)O)[C@@H](C)OC	28
COC(=O)N[C@H](C(=O)N1CCC[C@H]1c1nc2cc(F)c([C@H]3CC[C@H](c4cc5c(cc4F)nc([C@@H]4CCCN4C(=O)[C@@H](NC(=O)OC)[C@@H](C)OC)n5COP(=O)(O)O)N3c3cc(F)c(N4CCC(c5ccc(F)cc5)CC4)c(F)c3)cc2n1COP(=O)(O)O)[C@@H](C)OC	20
